# target-or-system: Peroxisome proliferator-activated receptor gamma (Homo sapiens)
# test-description: Effective concentration against human PPAR-gamma in Gal4 transactivation assay; 11% response at 3 uM
# Type: functional
metric-name: EC50

Request: Output reported EC50 of the compound CC(C)[C@@]1(C(=O)O)Cc2cc(OCCCOc3cc(C(F)(F)F)ccc3Cl)ccc2O1 on Peroxisome proliferator-activated receptor gamma (Homo sapiens).
Response: > 3 µM

###

# target-or-system: Peroxisome proliferator-activated receptor gamma (Homo sapiens, UniProt P37231)
# Sequence (P37231 whole entry): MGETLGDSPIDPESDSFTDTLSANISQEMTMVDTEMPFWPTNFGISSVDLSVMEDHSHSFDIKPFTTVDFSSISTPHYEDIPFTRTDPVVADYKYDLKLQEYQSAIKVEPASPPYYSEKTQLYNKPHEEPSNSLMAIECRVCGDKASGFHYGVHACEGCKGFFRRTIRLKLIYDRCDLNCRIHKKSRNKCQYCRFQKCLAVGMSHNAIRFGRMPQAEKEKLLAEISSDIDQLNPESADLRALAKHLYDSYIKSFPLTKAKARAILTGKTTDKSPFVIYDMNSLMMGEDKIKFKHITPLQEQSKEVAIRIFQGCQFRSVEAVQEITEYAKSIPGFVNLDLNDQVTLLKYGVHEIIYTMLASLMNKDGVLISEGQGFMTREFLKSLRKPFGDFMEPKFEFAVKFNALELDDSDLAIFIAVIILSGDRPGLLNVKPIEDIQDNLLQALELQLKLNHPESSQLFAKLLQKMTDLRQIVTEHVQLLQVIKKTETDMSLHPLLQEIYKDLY
# test-description: Effective concentration against human PPAR-gamma in Gal4 transactivation assay; 19% response at 3 uM
# Assay type: functional
metric-name: EC50

Request: Item CCC1(C(=O)O)Cc2cc(OCCCOc3ccc(OCC(F)(F)F)cc3Cl)ccc2O1 (racemic) : provide EC50
Response: > 3 µM

###

# target-or-system: Peroxisome proliferator-activated receptor gamma (Homo sapiens, UniProt P37231)
# Sequence (P37231 whole entry): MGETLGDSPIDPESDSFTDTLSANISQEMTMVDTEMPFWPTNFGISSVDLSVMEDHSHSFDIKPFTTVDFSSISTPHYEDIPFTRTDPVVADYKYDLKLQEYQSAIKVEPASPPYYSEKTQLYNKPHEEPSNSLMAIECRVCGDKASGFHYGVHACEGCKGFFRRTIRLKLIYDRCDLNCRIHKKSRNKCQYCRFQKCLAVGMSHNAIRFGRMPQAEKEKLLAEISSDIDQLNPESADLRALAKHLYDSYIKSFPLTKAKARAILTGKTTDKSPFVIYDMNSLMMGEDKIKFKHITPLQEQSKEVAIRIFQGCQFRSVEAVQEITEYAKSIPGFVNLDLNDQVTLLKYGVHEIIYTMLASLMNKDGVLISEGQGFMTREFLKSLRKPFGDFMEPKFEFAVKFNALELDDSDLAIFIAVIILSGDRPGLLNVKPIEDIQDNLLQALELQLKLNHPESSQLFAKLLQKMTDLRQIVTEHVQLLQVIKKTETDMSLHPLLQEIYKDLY
# test-description: Effective concentration against human PPAR-gamma in Gal4 transactivation assay; 12% response at 3 uM
# Type: functional
metric-name: EC50

Request: Item CCC1(C(=O)O)Cc2cc(OCCCOc3ccc(CC(C)(C)C)cc3Cl)ccc2O1 (racemic) : provide EC50
Response: > 3 µM

###

# target-or-system: Peroxisome proliferator-activated receptor gamma (Homo sapiens, UniProt P37231)
# Sequence (P37231 whole entry): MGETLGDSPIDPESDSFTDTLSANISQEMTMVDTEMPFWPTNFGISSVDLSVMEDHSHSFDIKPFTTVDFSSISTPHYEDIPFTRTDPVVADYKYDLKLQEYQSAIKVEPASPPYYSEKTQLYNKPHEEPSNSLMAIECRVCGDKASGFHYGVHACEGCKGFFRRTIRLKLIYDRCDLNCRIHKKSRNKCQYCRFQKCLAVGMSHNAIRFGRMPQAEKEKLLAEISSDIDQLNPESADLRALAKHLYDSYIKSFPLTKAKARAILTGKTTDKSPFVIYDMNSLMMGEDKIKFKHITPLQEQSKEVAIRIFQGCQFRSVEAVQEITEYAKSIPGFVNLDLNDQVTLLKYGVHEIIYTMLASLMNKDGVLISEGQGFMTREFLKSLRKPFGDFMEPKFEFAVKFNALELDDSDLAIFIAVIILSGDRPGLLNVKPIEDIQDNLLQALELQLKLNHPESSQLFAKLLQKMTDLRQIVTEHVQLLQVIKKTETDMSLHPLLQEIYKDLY
# test-description: Effective concentration against human PPAR-gamma in Gal4 transactivation assay; 25% response at 3 uM
# Assay type: functional
pEC50: −log10 of the molar value.
metric-name: pEC50

Request: Item CC(C)[C@@]1(C(=O)O)Cc2cc(OCCCOc3ccc(OC(F)(F)F)cc3Cl)ccc2O1 : provide pEC50
Response: < 5.52

###

# test-description: In vitro binding affinity for PPAR-alpha
# Parameters: species or system Homo sapiens
Kindly state IC50 for each of the entries shown.
I only need the number, in nM, no unit after it.

Request: Item CC(C)[C@@]1(C(=O)O)Cc2cc(OCCCOc3cc(C(F)(F)F)ccc3Cl)ccc2O1 : provide IC50
Response: 162

Request: Item O=C(O)C1Cc2cc(OCCCOc3ccc(OCC(F)(F)F)cc3Cl)ccc2O1 (racemic) : provide IC50
Response: 786

Request: Item CC1(C(=O)O)Cc2cc(OCCCOc3ccc(OCC(F)(F)F)cc3Cl)ccc2O1 (racemic) : provide IC50
Response: 106

Request: Item CC[C@@]1(C(=O)O)Cc2cc(OCCCOc3ccc(CC(F)(F)F)cc3Cl)ccc2O1 : provide IC50
Response: 4

###

# target-or-system: Peroxisome proliferator-activated receptor gamma (Homo sapiens)
# Sequence (P37231 whole entry): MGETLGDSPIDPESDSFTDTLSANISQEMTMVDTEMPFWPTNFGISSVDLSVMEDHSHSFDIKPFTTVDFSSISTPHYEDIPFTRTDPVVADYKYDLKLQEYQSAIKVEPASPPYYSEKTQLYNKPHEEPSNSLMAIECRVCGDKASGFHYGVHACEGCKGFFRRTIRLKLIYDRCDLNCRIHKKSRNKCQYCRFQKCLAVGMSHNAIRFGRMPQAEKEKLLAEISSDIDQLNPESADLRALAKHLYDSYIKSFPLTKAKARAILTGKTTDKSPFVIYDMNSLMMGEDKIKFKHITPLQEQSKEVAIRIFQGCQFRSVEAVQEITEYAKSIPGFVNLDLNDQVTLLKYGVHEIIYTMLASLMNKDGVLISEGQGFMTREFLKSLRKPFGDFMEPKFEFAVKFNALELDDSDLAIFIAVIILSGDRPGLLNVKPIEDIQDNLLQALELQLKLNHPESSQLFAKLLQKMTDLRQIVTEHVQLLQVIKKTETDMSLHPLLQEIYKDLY
# test-description: Effective concentration against human PPAR-gamma in Gal4 transactivation assay
# Type: functional
metric-name: EC50

Request: Item CC1(C(=O)O)Cc2cc(OCCCOc3ccc(OCC(F)(F)F)cc3Cl)ccc2O1 (racemic) : provide EC50
Response: > 3 µM

###

# test-description: In vitro binding affinity for PPAR-alpha
# Parameters: species or system Homo sapiens
Rule: measured IC50 below 40 nM gets T; anything equal to or greater than 40 nM gets F.

Request: Take the compound O=C(O)C1(Cc2ccccc2)Cc2cc(OCCCOc3ccc(OC(F)(F)F)cc3Cl)ccc2O1 (racemic) and say whether its IC50 is less than 40 nM.
Response: F

Request: Take the compound CC[C@@]1(C(=O)O)Cc2cc(OCCCOc3ccc(CCC(F)(F)F)cc3Cl)ccc2O1 and say whether its IC50 is less than 40 nM.
Response: T

Request: Take the compound CCC1(C(=O)O)Cc2cc(OCCCOc3ccc(C(F)(F)F)cc3Cl)ccc2O1 (racemic) and say whether its IC50 is less than 40 nM.
Response: F

Request: Take the compound CCC1(C(=O)O)Cc2cc(OCCCOc3ccc(CC(C)(C)C)cc3Cl)ccc2O1 (racemic) and say whether its IC50 is less than 40 nM.
Response: T

Request: Take the compound CC[C@@]1(C(=O)O)Cc2cc(OCCCOc3ccc(OC(F)(F)F)cc3Cl)ccc2O1 and say whether its IC50 is less than 40 nM.
Response: T

Request: Take the compound CC(C)[C@]1(C(=O)O)Cc2cc(OCCCOc3ccc(OC(F)(F)F)cc3Cl)ccc2O1 and say whether its IC50 is less than 40 nM.
Response: F

Request: Take the compound CC[C@@]1(C(=O)O)Cc2cc(OCCCOc3ccc(OCC(F)(F)F)cc3)ccc2O1 and say whether its IC50 is less than 40 nM.
Response: F

Request: Take the compound CCC1(C(=O)O)Cc2cc(OCCCOc3ccc(OCC(F)(F)F)cc3Cl)ccc2O1 (racemic) and say whether its IC50 is less than 40 nM.
Response: T

Request: Take the compound CC(C)(C)C1(C(=O)O)Cc2cc(OCCCOc3ccc(CC(F)(F)F)cc3Cl)ccc2O1 (racemic) and say whether its IC50 is less than 40 nM.
Response: T

Request: Take the compound CCC1(C(=O)O)Cc2cc(OCCCOc3ccc(C(C)(C)C)cc3Cl)ccc2O1 (racemic) and say whether its IC50 is less than 40 nM.
Response: T

Request: Take the compound CC(C)[C@@]1(C(=O)O)Cc2cc(OCCOc3ccc(OC(F)(F)F)cc3Cl)ccc2O1 and say whether its IC50 is less than 40 nM.
Response: F

Request: Take the compound CC[C@]1(C(=O)O)Cc2cc(OCCCOc3ccc(OC(F)(F)F)cc3Cl)ccc2O1 and say whether its IC50 is less than 40 nM.
Response: F

Request: Take the compound CCCc1cc(SC(F)(F)F)ccc1OCCCOc1ccc2c(c1)CC(CC)(C(=O)O)O2 (racemic) and say whether its IC50 is less than 40 nM.
Response: T

Request: Take the compound O=C(O)C1(C(F)(F)F)Cc2cc(OCCCOc3ccc(CC(F)(F)F)cc3Cl)ccc2O1 (racemic) and say whether its IC50 is less than 40 nM.
Response: T

Request: Take the compound CCC1(C(=O)O)Cc2cc(OCCCOc3ccc(SC(F)(F)F)cc3Cl)ccc2O1 (racemic) and say whether its IC50 is less than 40 nM.
Response: T

Request: Take the compound CC(C)[C@@]1(C(=O)O)Cc2cc(OCCCOc3ccc(OC(F)(F)F)cc3Cl)ccc2O1 and say whether its IC50 is less than 40 nM.
Response: T

Request: Take the compound CC(C)(C)[C@@]1(C(=O)O)Cc2cc(OCCOc3ccc(OC(F)(F)F)cc3Cl)ccc2O1 and say whether its IC50 is less than 40 nM.
Response: F

Request: Take the compound CCC1(C(=O)O)Cc2ccc(OCCCOc3ccc(OC(F)(F)F)cc3Cl)cc2O1 (stereo not drawn) and say whether its IC50 is less than 40 nM.
Response: T
